# measurement.target: Ras-related C3 botulinum toxin substrate 1 (Homo sapiens)
# experiment.summary: compounds altering fluorescent GTP loading on wildtype Rac1 – biochemical, GST-Rac1 beads, flow cytometry, multiplex, primary screen (AID 757)
# condition.summary: at 10 µM, actives lie on both sides, 0 = cold GTP competed, 100 = untreated
Hit rate of the full screen: of about 190,000 compounds, about 520 (0.27%) were called active. Roughly 2% stayed inconclusive and do not appear here.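 Rule for the calls: active = GTP binding activity at least 20 points away from the 100% control level, either lower or higher; inconclusive = compound flagged as likely green fluorescent, judged across all proteins; inactive = the rest.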 Only a selection was taken, and actives are over-represented in it overall.
Answer with one of the outcomes given here: True (active), False (inactive)

- molecule: "CN(C(=O)COc1ncnc2c1cnn2-c1ccccc1)C1CCCCC1"
  group: "False"
- molecule: "CCCCNC(=O)C1(c2ccc(OC)cc2)CCOCC1"
  group: "False"
- molecule: "O=C(CNC(=O)COc1ccccc1)NCCc1ccccn1"
  group: "False"
- molecule: "Cc1cc(C)nc(/N=C2\\NC(=O)CC(C(=O)O)N2c2ccc(Cl)cc2Cl)n1 (stereo not drawn)"
  group: "False"
- molecule: "COc1ccc(Br)cc1/C=N/Nc1ccc(Cl)c(C(=O)O)c1"
  group: "False"
- molecule: "Cc1nc(-c2ccccc2)sc1C(=O)/C=C/N(C)C"
  group: "False"

Please share the test call associated with "Cn1ncc(N2CCN(S(=O)(=O)c3ccc(Br)cc3)CC2)c(Cl)c1=O" . False

What outcome does the record of this test show for "O=C(CSc1ccsc1[N+](=O)[O-])N1CCCCC1" ? False

Recorded test outcome, item "CC/C(O)=C1\C(=O)CC(C)(C)CC1=NCCc1nc2ccccc2[nH]1" False

Test call for this molecule, please: "CC(=O)NCCC(=O)Nc1cc(S(=O)(=O)N2CCOCC2)ccc1N1CCOCC1" False

Could you kindly confirm the outcome this assay logged for "O=C(O)/C=C/c1cn(Cc2ccccc2)nc1-c1cccs1" ? True

Called result for "COc1cccc(-n2c(=S)sc3c(=O)n(-c4ccccc4OC)c(SCC4OCCO4)nc32)c1" False
